Values compiled from paper PMC10899256.

Target or system: T1, purified TBC1D23 PH domain (545–684) (human, UniProt Q9NUY8-2 545-684)
T1 construct: Used as prey for GST-tagged baits on glutathione beads and in ITC, so the GST was probably removed
T1 sequence (Q9NUY8 560-699): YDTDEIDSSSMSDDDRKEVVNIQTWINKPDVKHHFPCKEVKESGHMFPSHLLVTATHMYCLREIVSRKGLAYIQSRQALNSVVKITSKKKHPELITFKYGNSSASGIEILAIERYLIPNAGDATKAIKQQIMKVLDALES
Run description: ITC; LKB1-LFa motif peptides (1.0 mM) titrated into TBC1D23 PH domain (50 µM) at 25 °C; 100 mM Tris pH 8.0, 500 mM NaCl, 5% v/v glycerol
Conditions: both partners purified
Measured property: Kd (nM)
Respond numerically; units are nM and should not be typed.

Need Kd of GADEDEDLFDIEDDIIYTQD (LKB1 (STK11) LFa motif peptide; also called LKB1-LFa motif peptide; LKB1-LFa WT) [LKB1 LFa peptide WT] , thanks.
800
